Target or test system: Amine oxidase [flavin-containing] B (Homo sapiens, UniProt P27338)
Sequence (P27338 whole entry): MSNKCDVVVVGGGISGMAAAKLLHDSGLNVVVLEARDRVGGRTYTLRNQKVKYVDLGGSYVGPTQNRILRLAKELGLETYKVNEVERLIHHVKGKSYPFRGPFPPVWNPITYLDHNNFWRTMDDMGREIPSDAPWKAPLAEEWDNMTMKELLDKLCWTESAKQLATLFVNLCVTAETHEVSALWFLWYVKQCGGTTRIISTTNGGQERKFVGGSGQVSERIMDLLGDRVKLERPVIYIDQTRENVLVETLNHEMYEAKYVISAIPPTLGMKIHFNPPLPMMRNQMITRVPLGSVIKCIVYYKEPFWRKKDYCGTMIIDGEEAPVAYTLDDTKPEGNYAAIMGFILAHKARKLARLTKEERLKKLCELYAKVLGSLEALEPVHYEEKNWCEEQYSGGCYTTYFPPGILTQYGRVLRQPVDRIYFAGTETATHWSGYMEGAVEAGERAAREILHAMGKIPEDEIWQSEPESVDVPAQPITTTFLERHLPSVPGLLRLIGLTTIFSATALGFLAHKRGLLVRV
Test summary: Mixed type inhibition of recombinant human MAO-B expressed in baculovirus infected BT1 cells using benzylamine as substrate at 200 uM preincubated for 30 mins by Lineweaver-Burk plot analysis

- Entry smiles: "c1ccc(CNCCCCCCCCCCCCNCc2ccccc2)cc1"
  Ki (µM): 129
- Entry smiles: "NCCCNCCCCNCCCNCc1cccs1"
  Ki (µM): 23
- Entry smiles: "NCCCNCCCCNCCCNCc1ccccc1"
  Ki (µM): 291

###

Target or test system: Amine oxidase [flavin-containing] B (Homo sapiens, UniProt P27338)
Test summary: Ratio of relative Vmax to Km for recombinant human MAO-B expressed in baculovirus infected BT1 cells assessed as hydrogen peroxide generation rate using benzylamine as substrate at 200 uM preincubated for 30 mins by Amplex Red assay
Entries whose fold change (FC) is below 0.7 take Criterion met; entries at or above 0.7 take Criterion not met.

- Entry smiles: "NCCCNCCCCNCCCN"
  Target or test system: "Amine oxidase [flavin-containing] B (Homo sapiens, UniProt P27338)"
  Class assignment: "Criterion not met"
- Entry smiles: "NCCCNCCCCNCCCNCc1cccs1"
  Target or test system: "Amine oxidase [flavin-containing] B (Homo sapiens, UniProt P27338)"
  Class assignment: "Criterion met"
- Entry smiles: "NCCCNCCCCNCCCNCc1ccccc1"
  Target or test system: "Amine oxidase [flavin-containing] B (Homo sapiens, UniProt P27338)"
  Class assignment: "Criterion met"
- Entry smiles: "NCCCNCCCCNCCCNCc1ccc2ccccc2c1"
  Target or test system: "Amine oxidase [flavin-containing] B (Homo sapiens, UniProt P27338)"
  Class assignment: "Criterion not met"
- Entry smiles: "NCCCCCCCCNCCCNCc1cccs1"
  Target or test system: "Amine oxidase [flavin-containing] B (Homo sapiens, UniProt P27338)"
  Class assignment: "Criterion not met"
- Entry smiles: "c1ccc(CNCCCCCCCCCCCCNCc2ccccc2)cc1"
  Target or test system: "Amine oxidase [flavin-containing] B (Homo sapiens, UniProt P27338)"
  Class assignment: "Criterion met"
